method_summary: blockers of mitochondrial fusion, WT vs mutant – cell-based, chemical genetic, wild-type and mutant, confirmation (AID 1361)
measurement_conditions: Cell-based mitochondrial fusion phenotype, imaging, WT cells
Calls of active or inactive are those of the source. No rule for the calls is given here.
Reply using exactly one outcome from active, inactive

Example cases with answers are listed next.
molecule	answer_label
CCCCCOc1ccc2oc(=O)c3c(c2c1)CCCN3C(=O)CN1CCCC(C(=O)OCC)C1 (stereo not given)	inactive
O=C(CCCCCn1c(=S)[nH]c2cc3c(cc2c1=O)OCO3)N1CCN(C(=O)c2ccco2)CC1	inactive
Cc1nn(-c2cc(C)c3ccccc3n2)c2c1C1C(C2)C1(C)C (stereo not given)	inactive
CCOC(=O)c1c(-n2c(C)cc(C=C3C(=O)NC(=S)NC3=O)c2C)sc2c1CCCC2	active
Cc1coc(C)c1C(=O)CC1(O)C(=O)Nc2cc(Cl)cc(Cl)c21 (stereo not given)	inactive

Each molecule tested received a call. Report the one for Cc1ccc(Nc2nc(N)c([N+](=O)[O-])c(NCc3ccco3)n2)cc1C . active

Outcome logged for CC(NC(=S)NCCCN1CCOCC1)C1CC2CCC1C2 (stereo not given) in this assay: inactive

Check the results log: what was the call for COc1ccc(/C=C/C(=O)c2ccc(O)cc2)cc1COc1ccc(F)cc1 ? active

Name the outcome recorded for CCOC(=O)C1=C(C)C(c2cccc(Oc3ccccc3)c2)NC(=S)N1 (stereo not given) in the assay. inactive

Entry Cc1[nH]c2ccc(F)cc2c1CCN(Cc1ccco1)C(=S)NC(C)(C)C : call = ? active

###

method_summary: blockers of mitochondrial fusion, WT vs mutant – cell-based, chemical genetic, wild-type and mutant, confirmation (AID 1361)
measurement_conditions: Cell-based mitochondrial fusion phenotype, imaging, WT cells
Calls of active or inactive are those of the source. The rule behind the calls is not given here.
# valid calls are active, inactive; nothing else

Sample answers from the record:
molecule	answer_label
COc1ccc(-c2nc3n(c(=O)c2C#N)CCCS3)cc1	inactive
Fc1ccc(N2CCN(c3nc(CN4CCOCC4)nc4scc(-c5ccccc5)c34)CC2)cc1	active
CC1CCN(c2nc(-c3cccnc3)nc3scc(-c4ccccc4)c23)CC1	active
CCc1ccc(C2=CC(c3cc(Br)ccc3F)n3ncnc3N2)cc1 (configuration not stated)	active
Cc1ccccc1NC1=C(Cl)C(=O)N(C2CCCCC2)C1=O	active
C(=N\Nc1nc(N2CCCCCC2)nc(N2CCCCCC2)n1)/c1ccccc1	active
Cc1ccc(-c2cc(C(F)F)n3ncc(C(=O)N4CCN5CCCC5C4)c3n2)cc1 (configuration not stated)	inactive
CCOc1ccc(S(=O)(=O)N2CCN(C(=O)c3cc4c(s3)CCCC4)CC2)cc1	active

Name the outcome recorded for CCOC(=O)c1c(-c2cccs2)csc1NC(=O)C(C)(C)C in the assay. active

Short answer needed: outcome of this test for Cc1cccc(N2CCN(C(c3ccccc3)c3nnnn3C(C)(C)C)CC2)c1C (configuration not stated) ? active

What classification did CCc1ccccc1N(CC)C(=O)CCc1nc(-c2ccc(C)cc2)no1 end up with in this test? active

Which result was noted for this molecule in the test: CC1(C)CC(=O)c2c(O)cc(OCc3ccc([N+](=O)[O-])cc3)cc2O1 inactive

Can you look up the reported call for COc1ccc(S(=O)(=O)N2c3ccccc3OCC2C(C)(C)C)cc1 (configuration not stated) for me? active

Entry CCOc1ccc(-c2[nH]ncc2Oc2ccccc2OCC)c(O)c1 : call = ? inactive

What did the test return for O=C(c1cc(-c2ccc(Cl)cc2)n(-c2ccc(Cl)c(Cl)c2)n1)N1CCOCC1 ? active

Which outcome was assigned to CSC(=S)N/N=C/c1c[nH]c2ccccc12 in this test? active

What was the test verdict on CCOC(=O)C1=NN(c2cccc(C)c2)C2(S1)SC(C(C)=O)=C(C)N2c1ccccc1 (configuration not stated) ? active

Where do the numbers come from? From PubChem BioAssay AID1361.
